Taken from BigSolDB 2.1.

settings: in n-propanol, 278.15 K

Smiles representation	solubility (mole fraction)
Oc1ccccc1C=Nc1c(F)cccc1F	0.00779

====

details: in ethyl acetate, 283.15 K
Measured attribute: solubility (mole fraction)

Smiles representation	Measured attribute	Observed
Oc1ccccc1C=Nc1c(F)cccc1F	solubility (mole fraction)	0.124

====

conditions: in THF, 278.15 K

Smiles representation	solubility (mole fraction)
Oc1ccccc1C=Nc1c(F)cccc1F	0.181

====

settings: in toluene, 283.15 K
Measured attribute: solubility (mole fraction)

Smiles representation	Observed
Oc1ccccc1C=Nc1c(F)cccc1F	0.126

====

details: in 1,2-dichloroethane, 298.15 K

Smiles representation	solubility (mole fraction)
Oc1ccccc1C=Nc1c(F)cccc1F	0.234

====

settings: in THF, 298.15 K

Smiles representation	solubility (mole fraction)
Oc1ccccc1C=Nc1c(F)cccc1F	0.293

====

conditions: in dichloromethane, 273.15 K

Smiles representation	solubility (mole fraction)
Oc1ccccc1C=Nc1c(F)cccc1F	0.122

====

conditions: in THF, 303.15 K

Smiles representation	solubility (mole fraction)
Oc1ccccc1C=Nc1c(F)cccc1F	0.338

====

conditions: in acetonitrile, 288.15 K

Smiles representation	solubility (mole fraction)
Oc1ccccc1C=Nc1c(F)cccc1F	0.0389

====

conditions: in dichloromethane, 278.15 K
Measured attribute: solubility (mole fraction)

Smiles representation	Observed
Oc1ccccc1C=Nc1c(F)cccc1F	0.139

====

details: in isopropanol, 278.15 K

Smiles representation	solubility (mole fraction)
Oc1ccccc1C=Nc1c(F)cccc1F	0.0095

====

settings: in THF, 283.15 K
Measured attribute: solubility (mole fraction)

Smiles representation	Measured attribute	Observed
Oc1ccccc1C=Nc1c(F)cccc1F	solubility (mole fraction)	0.2

====

settings: in n-propanol, 283.15 K

Smiles representation	solubility (mole fraction)
Oc1ccccc1C=Nc1c(F)cccc1F	0.00958

====

conditions: in isopropanol, 273.15 K

Smiles representation	solubility (mole fraction)
Oc1ccccc1C=Nc1c(F)cccc1F	0.008

====

conditions: in methanol, 273.15 K
Measured attribute: solubility (mole fraction)

Smiles representation	Observed
Oc1ccccc1C=Nc1c(F)cccc1F	0.00299

====

conditions: in chloroform, 283.15 K

Smiles representation	solubility (mole fraction)
Oc1ccccc1C=Nc1c(F)cccc1F	0.177

====

conditions: in isopropanol, 288.15 K

Smiles representation	solubility (mole fraction)
Oc1ccccc1C=Nc1c(F)cccc1F	0.0136

====

details: in n-propanol, 298.15 K

Smiles representation	solubility (mole fraction)
Oc1ccccc1C=Nc1c(F)cccc1F	0.0177

====

conditions: in dichloromethane, 283.15 K

Smiles representation	solubility (mole fraction)
Oc1ccccc1C=Nc1c(F)cccc1F	0.161

====

conditions: in isopropanol, 283.15 K

Smiles representation	solubility (mole fraction)
Oc1ccccc1C=Nc1c(F)cccc1F	0.0114

====

conditions: in ethyl acetate, 293.15 K
Measured attribute: solubility (mole fraction)

Smiles representation	Measured attribute	Observed
Oc1ccccc1C=Nc1c(F)cccc1F	solubility (mole fraction)	0.173

====

conditions: in ethyl acetate, 288.15 K
Measured attribute: solubility (mole fraction)

Smiles representation	Measured attribute	Observed
Oc1ccccc1C=Nc1c(F)cccc1F	solubility (mole fraction)	0.146

====

conditions: in chloroform, 278.15 K

Smiles representation	solubility (mole fraction)
Oc1ccccc1C=Nc1c(F)cccc1F	0.154

====

conditions: in dichloromethane, 293.15 K

Smiles representation	solubility (mole fraction)
Oc1ccccc1C=Nc1c(F)cccc1F	0.218
